Values from patent US20100273722A1

# key: entry, value: Kd
# Study system: the molecule itself
# Assay text: sedimentation equilibrium AUC, self-association (dimer), 25 C
No end group written: not given here.
Field format: number, assumed nM, no unit text.

- Protein: "GPSQPTYPGDDAPVEDLIRFADNLQQYLNVVTRHRY-NH2 (Synthetic aPP variant; entries are for its self-association (dimer)) [aPP^Y21A]"
  Assay metric: "Kd"
  Units of measure: "nM"
  Numeric result: 1300

Here's the next entry for you.
Qu. State its Kd: GPSQPTYPGDDAPVEDLIRFYDNLQQYLNVVTRHRY (ends and bridges not checked, Bought from American Peptide Company; entries are for its self-association (dimer); also called wt aPP) [avian pancreatic polypeptide (aPP)]
Ans. 4100
